Hey, just so you know, these numbers are from the Immune Epitope Database (IEDB).

# Assay System: HLA-A*32:01
# Test Description: IEDB peptide-MHC binding, purified MHC/competitive/radioactivity; filed as Kd, often an IC50 or EC50 that approximates it; bounds were set here for any values at or beyond the usual limits of such assays
# Setup Conditions: source organism: Dengue virus 2 Peru/IQT2913/1996
Measured Property: Kd (µM)
Report the value in µM with no unit label.

Record "RTAGMIIML" : what is its Kd with HLA-A*32:01?
0.0965

* * *

# Assay System: HLA-B*40:01
# Test Description: IEDB peptide-MHC binding, purified MHC/direct/fluorescence; filed as Kd, often an IC50 or EC50 that approximates it; bounds were set here for any values at or beyond the usual limits of such assays
# Setup Conditions: source organism: Mammarenavirus lassaense
Measured Property: pKd
Expect pKd as a plain number equal to -log10 of the molar concentration.

Would you kindly share the measured pKd for "SEVSNVQRL" ?
7.15

* * *

# Assay System: HLA-B*44:03
# Test Description: IEDB peptide-MHC binding, purified MHC/competitive/radioactivity; filed as Kd, often an IC50 or EC50 that approximates it; bounds were set here for any values at or beyond the usual limits of such assays
# Setup Conditions: source organism: Dengue virus 3 Martinique/1243/1999
List of log10(Kd) values.
Reminder: these figures are log10 of reported Kd, in nM before transformation.

Would you kindly share the measured log10(Kd) for "HEEPVPMSTY" ?
2.61

Queued: "IESQKNGSW"
2.22

Queued: "TENILTVLL"
2.55

Queued: "METLLLLGL"
1.52

Queued: "AELEEGVYR"
3.97

* * *

# Assay System: HLA-B*39:01
# Test Description: IEDB peptide-MHC binding, purified MHC/competitive/fluorescence; filed as Kd, often an IC50 or EC50 that approximates it; bounds were set here for any values at or beyond the usual limits of such assays
# Setup Conditions: source organism: Pseudomonas aeruginosa PACS2
pKd: −log10 of the molar value.
Measured Property: pKd

Would you kindly share the measured pKd for "KLIDVSKCI" ?
≤ 4.70

* * *

# Assay System: HLA-B*15:01
# Test Description: IEDB peptide-MHC binding, purified MHC/competitive/radioactivity; filed as Kd, often an IC50 or EC50 that approximates it; bounds were set here for any values at or beyond the usual limits of such assays
# Setup Conditions: source organism: Vaccinia virus Copenhagen
Measured Property: pKd
Expect pKd as a plain number equal to -log10 of the molar concentration.

Would you kindly share the measured pKd for "LQNSVVLQF" ?
8.82

* * *

# Assay System: HLA-A*30:01
# Test Description: IEDB peptide-MHC binding, purified MHC/direct/fluorescence; filed as Kd, often an IC50 or EC50 that approximates it; bounds were set here for any values at or beyond the usual limits of such assays
# Setup Conditions: source organism: Vibrio vulnificus
pKd: −log10 of the molar value.
Measured Property: pKd

Record "VNGVKGIQF" : what is its pKd with HLA-A*30:01?
≤ 4.70

* * *

# Assay System: HLA-A*03:01
# Test Description: IEDB peptide-MHC binding, purified MHC/competitive/radioactivity; filed as Kd, often an IC50 or EC50 that approximates it; bounds were set here for any values at or beyond the usual limits of such assays
# Setup Conditions: source organism: SARS coronavirus Tor2
Measured Property: pKd
Expect pKd as a plain number equal to -log10 of the molar concentration.

Guide cases for pKd, answers given:
{"columns": ["Biopolymer Sequence", "Measurement"],
 "data": [
  ["WVFGSTMNNK", 6.71],
  ["HLYLQYIRK", 9.76],
  ["TLVPQEHYVR", 6.89],
  ["QLEQPYVFIK", 5.18],
  ["AFQHQNSKK", 4.86],
  ["VQIDRLITGR", 5.70],
  ["ALGGSIAVK", 7.82],
  ["ALKYLPIDK", 6.52],
  ["STSAFIDTIK", 5.96],
  ["SAGFSLWIY", 6.24]
]}

Would you kindly share the measured pKd for "ATSTGNYNYK" ?
8.36

Queued: "KSAQCFKMFY"
5.30

Queued: "TMLFTMLRK"
8.13

Queued: "SADASTFLK"
7.79

Queued: "SLLSLREVK"
6.60

Queued: "IVQMLSDTLK"
6.53

* * *

# Assay System: HLA-B*27:05
# Test Description: IEDB peptide-MHC binding, purified MHC/direct/fluorescence; filed as Kd, often an IC50 or EC50 that approximates it; bounds were set here for any values at or beyond the usual limits of such assays
# Setup Conditions: source organism: Cryptosporidium parvum
Measured Property: Kd

Would you kindly share the measured Kd for "DFIGKTIGF" ?
≥ 20 µM

* * *

# Assay System: HLA-A*02:01
# Test Description: IEDB peptide-MHC binding, purified MHC/direct/fluorescence; filed as Kd, often an IC50 or EC50 that approximates it; bounds were set here for any values at or beyond the usual limits of such assays
# Setup Conditions: source organism: Vibrio parahaemolyticus AQ3810
Measured Property: Kd

Would you kindly share the measured Kd for "RLDKPLWLH" ?
≥ 20 µM

* * *

# Assay System: HLA-B*15:01
# Test Description: IEDB peptide-MHC binding, purified MHC/competitive/fluorescence; bounds were set here for any values at or beyond the usual limits of such assays
# Setup Conditions: source organism: Vaccinia virus WR
Measured Property: IC50 (µM)
Report the value in µM with no unit label.

Would you kindly share the measured IC50 for "MSNGEHVPF" ?
48.7

* * *

# Assay System: HLA-A*68:02
# Test Description: IEDB peptide-MHC binding, purified MHC/direct/fluorescence; filed as Kd, often an IC50 or EC50 that approximates it; bounds were set here for any values at or beyond the usual limits of such assays
# Setup Conditions: source organism: Giardia lamblia ATCC 50803
Measured Property: Kd

Record "MHDPHSIPL" : what is its Kd with HLA-A*68:02?
≥ 20 µM

* * *

# Assay System: HLA-A*69:01
# Test Description: IEDB peptide-MHC binding, purified MHC/direct/fluorescence; filed as Kd, often an IC50 or EC50 that approximates it; bounds were set here for any values at or beyond the usual limits of such assays
# Setup Conditions: source organism: Camelpox virus CMS
Measured Property: Kd

Record "REVFYFGKF" : what is its Kd with HLA-A*69:01?
≥ 20 µM

* * *

# Assay System: HLA-A*03:01
# Test Description: IEDB peptide-MHC binding, purified MHC/direct/fluorescence; filed as Kd, often an IC50 or EC50 that approximates it; bounds were set here for any values at or beyond the usual limits of such assays
# Setup Conditions: source organism: Mycobacterium tuberculosis str. Haarlem
Measured Property: Kd

Would you kindly share the measured Kd for "IMANRAQVL" ?
≥ 20 µM

* * *

List of pKd values.
# Assay System: HLA-A*30:02
# Test Description: IEDB peptide-MHC binding, purified MHC/competitive/radioactivity; filed as Kd, often an IC50 or EC50 that approximates it; bounds were set here for any values at or beyond the usual limits of such assays
# Setup Conditions: source organism: Dengue virus 4 Philippines/H241/1956
Expect pKd as a plain number equal to -log10 of the molar concentration.

Guide cases for pKd, answers given:
{"columns": ["Biopolymer Sequence", "Measurement"],
 "data": [
  ["LTEIASLPTY", 6.65],
  ["NRKGKVIGLY", 6.96]
]}

Please find the next sequence below.
Would you kindly share the measured pKd for "CNLTSAWVMY" ?
6.26

* * *

# Assay System: HLA-A*01:01
# Test Description: IEDB peptide-MHC binding, purified MHC/competitive/fluorescence; bounds were set here for any values at or beyond the usual limits of such assays
# Setup Conditions: source organism: Vaccinia virus WR
Measured Property: pIC50
Expect pIC50 as a plain number equal to -log10 of the molar concentration.

Record "RGDLETLGY" : what is its pIC50 with HLA-A*01:01?
5.03

* * *

# Assay System: HLA-A*11:01
# Test Description: IEDB peptide-MHC binding, purified MHC/competitive/radioactivity; filed as Kd, often an IC50 or EC50 that approximates it; bounds were set here for any values at or beyond the usual limits of such assays
# Setup Conditions: source organism: Vaccinia virus WR
List of pKd values.
Expect pKd as a plain number equal to -log10 of the molar concentration.

Guide cases for pKd, answers given:
{"columns": ["Biopolymer Sequence", "Assay System", "Measured Property", "Measurement"],
 "data": [
  ["RSLQTIASKK", "HLA-A*11:01", "pKd", 7.65],
  ["FIDVHIPKFK", "HLA-A*11:01", "pKd", 6.75],
  ["DTQMRTPLHK", "HLA-A*11:01", "pKd", 7.11],
  ["YQSFLFWFLK", "HLA-A*11:01", "pKd", 9.15],
  ["NSISARALK", "HLA-A*11:01", "pKd", 8.40]
]}

Would you kindly share the measured pKd for "NTTYDFLARK" ?
7.50

Queued: "CAMPYNILDR"
6.73
